These measurements were taken from patent US12576087B2.

# SYSTEM TESTED: UniProt P14902
# METHOD NOTES: IDO1 Human Whole Blood Assay
# Type: cell-based
# SETUP CONDITIONS: WBLD taken as whole blood; read-out: WBLD IC50
METRIC NAME: IC50 (nM)

COMPOUND STRUCTURE STRING	SYSTEM TESTED	OBSERVED MEASUREMENT
Cc1ccccc1OC1CCN(C(=O)Cn2nc(C(=O)N3CCC(O)CC3)c3c2C[C@H]2C[C@@H]32)CC1	UniProt P14902	40.2
Cc1c(F)cccc1OC1CCN(C(=O)Cn2nc(C(=O)N3C[C@@H](C)O[C@@H](C)C3)c3c2CCC3)CC1	UniProt P14902	49.2
Cc1cccc(F)c1OC1CCN(C(=O)Cn2nc(C(=O)N3C[C@@H](C)O[C@@H](C)C3)c3c2CCC3)CC1	UniProt P14902	241
Cc1ccccc1OC1CCN(C(=O)Cn2nc(C(=O)N3CC[C@H](O)[C@@H](F)C3)c3c2CCCC3)CC1	UniProt P14902	22.9

----------
# SYSTEM TESTED: UniProtKB P14902
# METHOD NOTES: IDO1 Human Whole Blood Assay
# Type: cell-based
# SETUP CONDITIONS: WBLD taken as whole blood; read-out: WBLD IC50
pIC50: −log10 of the molar value.

COMPOUND STRUCTURE STRING	pIC50
Cc1cc(F)ccc1OC1CCN(C(=O)Cn2nc(C(=O)N3CCN(C(=O)CO)CC3)c3c2CCCC3)CC1	6.85
Cc1ccccc1OC1CCN(C(=O)Cn2nc(C(=O)N3CCN(C(=O)CO)CC3)c3c2C[C@H]2C[C@@H]32)CC1	7.89
Cc1ccccc1OC1CCN(C(=O)Cn2nc(C(=O)N3CCC(O)(CF)CC3)c3c2CCC3)CC1	6.85
Cc1ccccc1OC1CCN(C(=O)Cn2nc(C(=O)N3CC[C@H](O)[C@H](F)C3)c3c2C[C@H]2C[C@@H]32)CC1	7.33

----------
# SYSTEM TESTED: IDO1 (Homo sapiens, UniProt P14902)
# Sequence (P14902 whole entry): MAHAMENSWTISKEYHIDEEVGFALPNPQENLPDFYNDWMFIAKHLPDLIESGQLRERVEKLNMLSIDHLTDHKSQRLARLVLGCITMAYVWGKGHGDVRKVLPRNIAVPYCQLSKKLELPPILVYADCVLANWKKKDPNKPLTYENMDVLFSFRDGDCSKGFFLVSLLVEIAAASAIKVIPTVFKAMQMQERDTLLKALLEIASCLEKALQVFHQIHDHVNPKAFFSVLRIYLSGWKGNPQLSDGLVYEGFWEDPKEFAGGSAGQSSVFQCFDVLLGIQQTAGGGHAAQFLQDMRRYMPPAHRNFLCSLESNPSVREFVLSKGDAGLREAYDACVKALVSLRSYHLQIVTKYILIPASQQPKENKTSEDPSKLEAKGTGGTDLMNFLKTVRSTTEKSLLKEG
# METHOD NOTES: IDO1 Human Whole Blood Assay
# Type: cell-based
# SETUP CONDITIONS: WBLD taken as whole blood; read-out: WBLD IC50

COMPOUND STRUCTURE STRING	IC50 / nM
Cc1ccc(OC2CCN(C(=O)Cn3nc(C(=O)N4C[C@@H](C)O[C@@H](C)C4)c4c3CCC4)CC2)cc1	360
Cc1cc(F)ccc1OC1CCN(C(=O)Cn2nc(C(=O)N3CCC(F)(CO)CC3)c3c2CCCC3)CC1	19.7
Cc1ccccc1OC1CCN(C(=O)Cn2nc(C(=O)N3C[C@@H](C)O[C@@H](C)C3)c3c2CCC3)CC1	46.8
CC(=O)NC1CCN(C(=O)c2nn(CC(=O)N3CCC(Oc4ccccc4C)CC3)c3c2[C@@H]2C[C@@H]2C3)CC1	114
Cc1cc(F)ccc1OC1CCN(C(=O)Cn2nc(C(=O)N3CCC(F)(CO)CC3)c3c2CCC3)CC1	259
Cc1ccccc1SC1CCN(C(=O)Cn2nc(C(=O)N3CC[C@@H](O)[C@@H](F)C3)c3c2C[C@H]2C[C@@H]32)CC1	532
C[C@@H]1C[C@H](Oc2ncccc2C(F)(F)F)CCN1C(=O)Cn1nc(C(=O)N2CCC(OCCO)CC2)c2c1C[C@H]1C[C@@H]21	212
C[C@@H]1CN(C(=O)c2nn(CC(=O)N3CCC(Oc4cc(F)ccc4Cl)CC3)c3c2CCC3)C[C@H](C)O1	150
Cc1ccccc1OC1CCN(C(=O)Cn2nc(C(=O)N3CCC(OCCO)CC3)c3c2CCCC3)CC1	20
Cc1ccccc1OC1CCN(C(=O)Cn2nc(C(=O)N3CC[C@H](O)C[C@@H]3C)c3c2CCCC3)CC1	114
Cc1ccccc1OC1CCN(C(=O)Cn2nc(C(=O)N3CCC(F)(CO)CC3)c3c2CCC3)CC1	188
C[C@@H]1C[C@H](Oc2ccccc2Cl)CCN1C(=O)Cn1nc(C(=O)N2CC[C@@H](O)[C@@H](F)C2)c2c1C[C@H]1C[C@@H]21	101
CC(=O)NC1CCN(C(=O)c2nn(CC(=O)N3CCC(Oc4ccccc4Cl)CC3)c3c2CCCC3)CC1	596
Cc1ccccc1OC1CCN(C(=O)Cn2nc(C(=O)N3CC[C@@H](O)[C@@H](F)C3)c3c2C[C@H]2C[C@@H]32)CC1	26.3
